# tested target: Nucleic Acid
# test summary: Displacement of ethidium bromide from HIV TAR RNA by fluorescent intercalator displacement assay
# Type: nucleic-acid assay, Human immunodeficiency virus
Recorded measurements of DC50, one per entry
Give just the numeric value; nM need not be written.

// known answers, use as guide
CN1CCN(c2ccc3nc(-c4ccc(OCCn5cc(CCCc6cn(C[C@H]7O[C@@H](O[C@@H]8[C@@H](O)[C@H](N)C[C@H](N)[C@H]8O[C@H]8O[C@H](CN)[C@@H](O)[C@H](O)[C@H]8N)[C@H](O)[C@@H]7O[C@H]7O[C@@H](CN)[C@@H](O)[C@H](O)[C@H]7N)nn6)nn5)cc4)[nH]c3c2)CC1	140
CN1CCN(c2ccc3nc(-c4ccc(OCCn5cc(CCCCCCc6cn(C[C@H]7O[C@@H](O[C@@H]8[C@@H](O)[C@H](N)C[C@H](N)[C@H]8O[C@H]8O[C@H](CN)[C@@H](O)[C@H](O)[C@H]8N)[C@H](O)[C@@H]7O[C@H]7O[C@@H](CN)[C@@H](O)[C@H](O)[C@H]7N)nn6)nn5)cc4)[nH]c3c2)CC1	81
CN1CCN(c2ccc3nc(-c4ccc(OCc5cn(CCCCCn6cc(CCCCc7cn(C[C@H]8O[C@@H](O[C@@H]9[C@@H](O)[C@H](N)C[C@H](N)[C@H]9O[C@H]9O[C@H](CN)[C@@H](O)[C@H](O)[C@H]9N)[C@H](O)[C@@H]8O[C@H]8O[C@@H](CN)[C@@H](O)[C@H](O)[C@H]8N)nn7)nn6)nn5)cc4)[nH]c3c2)CC1	150

## Task What value of DC50 on Nucleic Acid does CN1CCN(c2ccc3nc(-c4ccc(OCc5cn(C[C@H]6O[C@@H](O[C@@H]7[C@@H](O)[C@H](N)C[C@H](N)[C@H]7O[C@H]7O[C@H](CN)[C@@H](O)[C@H](O)[C@H]7N)[C@H](O)[C@@H]6O[C@H]6O[C@@H](CN)[C@@H](O)[C@H](O)[C@H]6N)nn5)cc4)[nH]c3c2)CC1 have?
## Result 33

## Task What value of DC50 on Nucleic Acid does CN1CCN(c2ccc3nc(-c4ccc(OCCn5cc(CCc6cn(C[C@H]7O[C@@H](O[C@@H]8[C@@H](O)[C@H](N)C[C@H](N)[C@H]8O[C@H]8O[C@H](CN)[C@@H](O)[C@H](O)[C@H]8N)[C@H](O)[C@@H]7O[C@H]7O[C@@H](CN)[C@@H](O)[C@H](O)[C@H]7N)nn6)nn5)cc4)[nH]c3c2)CC1 have?
## Result 83

## Task What value of DC50 on Nucleic Acid does CN1CCN(c2ccc3nc(-c4ccc(OCCn5cc(COCc6cn(C[C@H]7O[C@@H](O[C@@H]8[C@@H](O)[C@H](N)C[C@H](N)[C@H]8O[C@H]8O[C@H](CN)[C@@H](O)[C@H](O)[C@H]8N)[C@H](O)[C@@H]7O[C@H]7O[C@@H](CN)[C@@H](O)[C@H](O)[C@H]7N)nn6)nn5)cc4)[nH]c3c2)CC1 have?
## Result 78

## Task What value of DC50 on Nucleic Acid does CN1CCN(c2ccc3nc(-c4ccc(OCCn5cc(-c6ccc(-c7cn(C[C@H]8O[C@@H](O[C@@H]9[C@@H](O)[C@H](N)C[C@H](N)[C@H]9O[C@H]9O[C@H](CN)[C@@H](O)[C@H](O)[C@H]9N)[C@H](O)[C@@H]8O[C@H]8O[C@@H](CN)[C@@H](O)[C@H](O)[C@H]8N)nn7)cc6)nn5)cc4)[nH]c3c2)CC1 have?
## Result 180
